Target: T1, recombinant extracellular domain of hASIC1a (hASIC1a-ECD) (human, UniProt P78348 67-427, limits assumed)
T1 construct: extracellular domain; ASIC1a is one splice isoform of it; also called trimeric ectodomain of hASIC1a
T1 sequence (looked up): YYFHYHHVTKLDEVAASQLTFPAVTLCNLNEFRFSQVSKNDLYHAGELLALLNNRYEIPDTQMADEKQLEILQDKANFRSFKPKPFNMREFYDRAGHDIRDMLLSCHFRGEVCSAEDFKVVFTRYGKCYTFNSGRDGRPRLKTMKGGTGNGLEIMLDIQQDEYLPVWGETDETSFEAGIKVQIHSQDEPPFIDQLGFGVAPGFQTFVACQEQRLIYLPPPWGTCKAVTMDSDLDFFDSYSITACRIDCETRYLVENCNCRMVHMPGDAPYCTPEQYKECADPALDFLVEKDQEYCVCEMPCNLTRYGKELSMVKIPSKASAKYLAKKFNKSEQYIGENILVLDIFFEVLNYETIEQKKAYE
Test: SPR, Biacore T200, hASIC1a-ECD immobilized, IgG1 as analyte

# binder, koff [s⁻¹]
data = [
    ("ASC06-04-IgG1 (antibody, V domains shown, Full length IgG1) VH: QVQLQQSGGGLVQPGGSLRLSCAASGFTFSSYAMSWVRQAPGKGLEWVSAISGSGGSTYYADSVKGRFTISRDNSKNTLYLQMNSLRAEDTAVYYCAKDSFYGRAKGVWGQGTLVTVSS VL: QSALTQPASVSGSPGQSITISCTGTSSDVGAYNYVSWYQQQPGKAPKLMIYGVSNRPSGVSNRFSGSKSGNAASLTISGLQAEDEADYYCSSYTSSSTYVFGTGTKLTVLG", 0.000163),
]

All values here come from patent US20230174642A1.
